Task for the reader: assign each of the following molecules its reported intensity of GFP fluorescence relative to control culture (KY02111 only, assigned to one).
Test system: monkey ES cell line transfected with an αMHC promoter-driven GFP gene
Experiment notes: Chemical screening: GFP fluorometry for cardiac differentiation of monkey ES cells
Assay type: cell-based, cynomolgus monkey
Measurement setup: test compound 1 μM in Early phase (day 0 to day 3); 10 μM KY02111 in late phase; GFP fluorometry day 9
Quick one: just the number, no unit, thanks!

Looking up c1cc(-c2cnn3cc(-c4ccc(OCCN5CCCCC5)cc4)cnc23)ccn1 , I see its intensity of GFP fluorescence relative to control culture (KY02111 only, assigned to one) listed as 0.03

Looking up O=c1[nH]c2ccccc2n1C1CCN(Cc2ccc(-c3nc4cc5[nH]cnc5cc4nc3-c3ccccc3)cc2)CC1 , I see its intensity of GFP fluorescence relative to control culture (KY02111 only, assigned to one) listed as 0.96

Looking up Cc1c[nH]c(/C=C2\C(=O)Nc3ccccc32)c1CCC(=O)O , I see its intensity of GFP fluorescence relative to control culture (KY02111 only, assigned to one) listed as 0

Looking up NC(=O)c1ccc(-c2nc(-c3ccccn3)c(-c3ccc4c(c3)OCO4)[nH]2)cc1 , I see its intensity of GFP fluorescence relative to control culture (KY02111 only, assigned to one) listed as 0.1

Looking up CCN(CC)CCCCNc1ncc2cc(-c3cc(OC)cc(OC)c3)c(NC(=O)NC(C)(C)C)nc2n1 , I see its intensity of GFP fluorescence relative to control culture (KY02111 only, assigned to one) listed as 0

Looking up CN1CCN(C2CCC(n3cc(-c4ccc(Oc5ccccc5)cc4)c4c(N)ncnc43)CC2)CC1 (stereo not shown) , I see its intensity of GFP fluorescence relative to control culture (KY02111 only, assigned to one) listed as 0.01

Looking up COc1cc([C@@H]2c3cc4c(cc3[C@H](O)[C@H]3COC(=O)[C@@H]23)OCO4)cc(OC)c1OC , I see its intensity of GFP fluorescence relative to control culture (KY02111 only, assigned to one) listed as 0

###

Test system: monkey ES cell line transfected with an αMHC promoter-driven GFP gene
Experiment notes: Chemical screening: GFP fluorometry for cardiac differentiation of monkey ES cells
Format: cell-based, cynomolgus monkey
Measurement setup: test compound 0.3 μM in Late phase (day 4 to day 7) with 10 μM KY02111; GFP fluorometry day 9
Task for the reader: assign each of the following molecules its reported intensity of GFP fluorescence relative to control culture (KY02111 only, assigned to one).
Quick one: just the number, no unit, thanks!

# lookup: Cc1c[nH]c(/C=C2\C(=O)Nc3ccccc32)c1CCC(=O)O [SU5402] on monkey ES cell line transfected with an αMHC promoter-driven GFP gene, intensity of GFP fluorescence relative to control culture (KY02111 only, assigned to one) = 0.89

# lookup: c1cc(-c2cnn3cc(-c4ccc(OCCN5CCCCC5)cc4)cnc23)ccn1 [Dorsomorphin] on monkey ES cell line transfected with an αMHC promoter-driven GFP gene, intensity of GFP fluorescence relative to control culture (KY02111 only, assigned to one) = 0.96

# lookup: O=C1NC(=O)/C(=C\c2ccc3nccnc3c2)S1 [AS605240] on monkey ES cell line transfected with an αMHC promoter-driven GFP gene, intensity of GFP fluorescence relative to control culture (KY02111 only, assigned to one) = 1.31

# lookup: CCN(CC)CCCCNc1ncc2cc(-c3cc(OC)cc(OC)c3)c(NC(=O)NC(C)(C)C)nc2n1 [PD173074] on monkey ES cell line transfected with an αMHC promoter-driven GFP gene, intensity of GFP fluorescence relative to control culture (KY02111 only, assigned to one) = 0.23

# lookup: CC(C)(C)c1ccc(S(=O)(=O)Nc2ccc(-n3ccnc3)cc2)cc1 [ISCK03] on monkey ES cell line transfected with an αMHC promoter-driven GFP gene, intensity of GFP fluorescence relative to control culture (KY02111 only, assigned to one) = 1.23

# lookup: OCCn1cc(-c2cnc3nnn(Cc4ccc5ncccc5c4)c3n2)cn1 [PF042I7903] on monkey ES cell line transfected with an αMHC promoter-driven GFP gene, intensity of GFP fluorescence relative to control culture (KY02111 only, assigned to one) = 1.09

# lookup: O=c1[nH]c2ccccc2n1C1CCN(Cc2ccc(-c3nc4cc5[nH]cnc5cc4nc3-c3ccccc3)cc2)CC1 [Akt inhibitor 8] on monkey ES cell line transfected with an αMHC promoter-driven GFP gene, intensity of GFP fluorescence relative to control culture (KY02111 only, assigned to one) = 1.11

# lookup: Cc1cc(Nc2ncc3c(n2)N(C)C(=O)N(c2cc(NC(=O)c4cccc(C(F)(F)F)c4)ccc2C)C3)n(C)n1 [SC-1] on monkey ES cell line transfected with an αMHC promoter-driven GFP gene, intensity of GFP fluorescence relative to control culture (KY02111 only, assigned to one) = 0.14

# lookup: COc1ccc(-c2ccc3c(N4CCOCC4)nc(N4C[C@@H](C)O[C@@H](C)C4)nc3n2)cc1CO [K00063794] on monkey ES cell line transfected with an αMHC promoter-driven GFP gene, intensity of GFP fluorescence relative to control culture (KY02111 only, assigned to one) = 0.95

# lookup: COc1cc2ncnc(Nc3cccc(Cl)c3)c2cc1OC [AG1478] on monkey ES cell line transfected with an αMHC promoter-driven GFP gene, intensity of GFP fluorescence relative to control culture (KY02111 only, assigned to one) = 1.24

# lookup: CC(=O)O[C@@]12C[C@@H](C)[C@@]3(O)[C@@H](C=C(CO)C[C@]4(O)C(=O)C(C)=C[C@@H]34)[C@@H]1C2(C)C [Prostratin] on monkey ES cell line transfected with an αMHC promoter-driven GFP gene, intensity of GFP fluorescence relative to control culture (KY02111 only, assigned to one) = 0.72

# lookup: CNC(=O)c1ccccc1Sc1ccc2c(/C=C/c3ccccn3)n[nH]c2c1 [Axitinib] on monkey ES cell line transfected with an αMHC promoter-driven GFP gene, intensity of GFP fluorescence relative to control culture (KY02111 only, assigned to one) = 0.95

# lookup: COc1cc([C@@H]2c3cc4c(cc3[C@H](O)[C@H]3COC(=O)[C@@H]23)OCO4)cc(OC)c1OC [PPP] on monkey ES cell line transfected with an αMHC promoter-driven GFP gene, intensity of GFP fluorescence relative to control culture (KY02111 only, assigned to one) = 0.39

# lookup: Cc1ccc(-n2nc(C(C)(C)C)cc2NC(=O)Nc2ccc(OCCN3CCOCC3)c3ccccc23)cc1 [BIRB796] on monkey ES cell line transfected with an αMHC promoter-driven GFP gene, intensity of GFP fluorescence relative to control culture (KY02111 only, assigned to one) = 1.05

# lookup: NC(=O)c1ccc(-c2nc(-c3ccccn3)c(-c3ccc4c(c3)OCO4)[nH]2)cc1 [5B431542] on monkey ES cell line transfected with an αMHC promoter-driven GFP gene, intensity of GFP fluorescence relative to control culture (KY02111 only, assigned to one) = 1.2

# lookup: CN1CCN(C2CCC(n3cc(-c4ccc(Oc5ccccc5)cc4)c4c(N)ncnc43)CC2)CC1 (stereo not drawn) [A419259] on monkey ES cell line transfected with an αMHC promoter-driven GFP gene, intensity of GFP fluorescence relative to control culture (KY02111 only, assigned to one) = 1.7

# lookup: N#C/C(=C/c1ccc(O)c(O)c1)C(=O)NCc1ccccc1 [AG490] on monkey ES cell line transfected with an αMHC promoter-driven GFP gene, intensity of GFP fluorescence relative to control culture (KY02111 only, assigned to one) = 0.92

# lookup: CC(C)(O)/C=C/C(=O)[C@](C)(O)[C@H]1[C@H](O)C[C@@]2(C)[C@@H]3CC=C4[C@@H](C=C(O)C(=O)C4(C)C)[C@]3(C)C(=O)C[C@]12C [Cucurbitaonl] on monkey ES cell line transfected with an αMHC promoter-driven GFP gene, intensity of GFP fluorescence relative to control culture (KY02111 only, assigned to one) = 1.62
